Species: Mus musculus
Protocol Summary: Effect of compound on mice bearing the L1210 Leukemia expressed as T/C percent treated/control)-dose 30x2 mg/ kg
Format: functional
I'd appreciate it if you could supply T/C values for the items below.
Give bare numbers, in %.

// worked examples, T/C included
NC(=S)N/N=C/c1ncccc1N    96
Cc1ccnc(/C=N/N=C(/N)S)c1N    232

Below is a list of compounds. For each, state its recorded T/C.
1. Cc1cc(/C=N/N=C(/N)S)ncc1N
2. N/C(S)=N/N=C/c1ccc(N)cn1

Reply text:
1. 190
2. 91

* * *

Organism: Mus musculus
Protocol Summary: Average survival days at the dose 10x2 mg/ kg in mice bearing the L1210 Leukemia
Format: functional
Metric: Average survival (days)
Numbers only, in days.

Below is a list of molecules. For each, state its recorded Average survival.
1. Cc1cc(/C=N/N=C(/N)S)ncc1N
2. NC(=S)N/N=C/c1ncccc1N
3. Cc1ccnc(/C=N/N=C(/N)S)c1N
4. N/C(S)=N/N=C/c1ccc(N)cn1

Reply text:
1. 18.6
2. 18.7
3. 14.8
4. 17.6
